assay: Example 2: cell number and viability; format: cell-based, Chinese hamster; details: Chinese hamster, cell line 25H9 (CHO cells), 32° C., 15 μM decitabine, day 0
assay-metric: viability at 0 day, 15 μM

For the molecule Nc1ncn([C@H]2C[C@H](O)[C@@H](CO)O2)c(=O)n1 , what viability at 0 day, 15 μM is on record? 94.2%

====

assay: Example 2: cell number and viability; format: cell-based, Chinese hamster; details: Chinese hamster, cell line 25H9 (CHO cells), 32° C., 20 μM decitabine, day 0
assay-metric: viability at 0 day, 20 μM (%)
Output spec: scalar in %, unitless text.

What value of viability at 0 day, 20 μM has been reported for the following molecule? Nc1ncn([C@H]2C[C@H](O)[C@@H](CO)O2)c(=O)n1 [decitabine, 5-aza-2′-deoxycytidine] 94.2

From: patent US6890736B1
